system: DMS 114 small cell lung; experiment: NCI tumour cell line growth inhibition, 48 h
metric_name: TGI

[[record]]
compound = "O=C(NCCCCCCNC(=O)n1cc(F)c(=O)[nH]c1=O)NCCCOCCOCCCNC(=O)C(O)C(O)C(O)C(O)CO (stereo unspecified)"
target_desc = "DMS 114 small cell lung"
test_result = "> 2.5 µM"

[[record]]
compound = "C(CCC[Te][Te]CCCCCCOC1CCCCO1)CCOC1CCCCO1 (stereo unspecified)"
target_desc = "DMS 114 small cell lung"
test_result = "25.5 µM"

[[record]]
compound = "COc1c(C(=O)O)oc2c(OC)cccc12"
target_desc = "DMS 114 small cell lung"
test_result = "> 100 µM"

[[record]]
compound = "CC1(C)OC(=O)C=C([O-])O1.CC1(C)OC(=O)C=C([O-])O1.O=S(=O)([O-])c1ccc([O-])c2ncccc12.O=S(=O)([O-])c1ccc([O-])c2ncccc12.[Ti+4]"
target_desc = "DMS 114 small cell lung"
test_result = "> 100 µM"

[[record]]
compound = "COc1ccc2c(c1OC)C1=C(C2=O)c2cc3c(cc2CCN1)OCO3"
target_desc = "DMS 114 small cell lung"
test_result = "56.7 µM"

[[record]]
compound = "CC(=O)OCCOCNC(=S)N/N=C(\\C)c1cnc2ccccc2n1"
target_desc = "DMS 114 small cell lung"
test_result = "47.4 µM"

[[record]]
compound = "CCC(=O)C(C)C1=Nc2nnc(CCCCCCCc3nnc4n3C(=O)C(C(C)C(=O)CC)=N4)n2C1=O (stereo unspecified)"
target_desc = "DMS 114 small cell lung"
test_result = "> 100 µM"

[[record]]
compound = "C=C=C(CC)C(C(=O)OC)N(CC)CC (stereo unspecified)"
target_desc = "DMS 114 small cell lung"
test_result = "> 100 µM"

[[record]]
compound = "CN(CN1C(=O)C2Cc3ccccc3CN2C1=O)c1ccccn1 (stereo unspecified)"
target_desc = "DMS 114 small cell lung"
test_result = "> 100 µM"

[[record]]
compound = "CC(=O)OCC1OC(n2cc(F)c(=O)[nH]c2=O)C(N)C(OC(C)=O)C1OC(C)=O (stereo unspecified)"
target_desc = "DMS 114 small cell lung"
test_result = "> 100 µM"

[[record]]
compound = "O=C1C=C(Br)C(=O)C12CCc1ccccc12 (stereo unspecified)"
target_desc = "DMS 114 small cell lung"
test_result = "45.2 µM"


* * *

# reported TGI; entries follow
system: MDA-MB-231 breast; test: NCI tumour cell line growth inhibition, 48 h
metric_name: TGI (µM)

[[record]]
query_smiles = "O=C(NCCCNc1cc(-c2cn(-c3ccccc3)nc2-c2cccc(O)c2)ccn1)c1ccccc1"
target_desc = "MDA-MB-231 breast"
result_comparator = "="
test_result = 5.4

[[record]]
query_smiles = "CCCCNN"
target_desc = "MDA-MB-231 breast"
result_comparator = ">"
test_result = 100

[[record]]
query_smiles = "CC(=O)[C@@H]1CCC=C2CC[C@]3(C)[C@@H](CC[C@@H]4[C@@]5(C)CCCNC(C)(C)[C@@H]5CC[C@]43C)[C@H]21"
target_desc = "MDA-MB-231 breast"
result_comparator = "="
test_result = 3.35

[[record]]
query_smiles = "C[C@]1(CO)[C@H]2CC[C@@]34C=C[C@@](CO)(CC[C@H]3[C@]2(C)CC[C@H]1O)C4"
target_desc = "MDA-MB-231 breast"
result_comparator = ">"
test_result = 100

[[record]]
query_smiles = "C=CCOc1ccccc1N=N/C(C#N)=N\\Nc1ccccc1OCC=C"
target_desc = "MDA-MB-231 breast"
result_comparator = ">"
test_result = 100


* * *

test system: SK-MEL-5 melanoma; assay: NCI tumour cell line growth inhibition, 48 h
metric_name: TGI

[[record]]
compound = "Cc1c(C(=O)NCCO)[n+](=O)c2cc(Cl)ccc2n1[O-]"
test_result = "> 100 µM"

[[record]]
compound = "COCCOC(=O)NC(=O)Nc1ccc(/C(=N/O)c2ccc(Cl)cc2)cc1"
test_result = "2.85 µM"

[[record]]
compound = "CC(C)CCC[C@@H](C)[C@H]1CCC2C3CC=C4C[C@@H](Oc5c6ccccc6nc6ccccc56)CCC4C3CCC21 (stereo not given in full)"
test_result = "> 50 µM"

[[record]]
compound = "CC(=O)NCCC1CN(C(=O)/C=C\\C#C[Si](C)(C)C)c2ccccc21 (stereo not given)"
test_result = "> 100 µM"

[[record]]
compound = "O=C(O)CCCCCOc1cccnc1/C=N/NC1=NCCN1"
test_result = "> 100 µM"


* * *

tested on: SK-MEL-2 melanoma; test: NCI tumour cell line growth inhibition, 48 h
# reported TGI; entries follow
metric_name: TGI

[[record]]
molecule = "Cc1c(C(=O)c2ccccc2C(=O)O)c2ccccc2n1C"
test_result = "> 100 µM"

[[record]]
molecule = "Cc1ccsc1/C=N/Nc1cc(C)c2cccc(C)c2n1"
test_result = "> 100 µM"

[[record]]
molecule = "CCOC(=O)N1CCN(c2ccc3c(C)cc(C)nc3n2)CC1"
test_result = "> 100 µM"

[[record]]
molecule = "Cc1cc(O)c2c(c1O)C(=O)C13C(=C2O)C(=O)C2C(O)C1C1C(O)C3C(=O)C3=C(O)c4c(O)cc(C)c(O)c4C(=O)C321 (stereo unspecified)"
test_result = "0.468 µM"

[[record]]
molecule = "CC1=C[C@H]2c3c(c(O)c(O)c4oc5ccccc5c(=O)c34)[C@H](c3cc(O)c(O)c4oc5ccccc5c(=O)c34)[C@H]2C(C)(C)C1"
test_result = "6.72 µM"

[[record]]
molecule = "O=C1NC(N/N=C\\C(O)C(O)C(O)CO)=N/C1=C/c1ccc(Cl)cc1 (stereo unspecified)"
test_result = "> 100 µM"

[[record]]
molecule = "O=C1O/C(=C(\\Br)c2cccc3ccccc23)c2ccccc21"
test_result = "> 61 µM"

[[record]]
molecule = "CN1c2ccccc2N(C)C2C1N(C)c1ccccc1N2C (stereo unspecified)"
test_result = "69.6 µM"

[[record]]
molecule = "C=C1C(=O)OC2(C)C3CCC(C3)C12 (stereo unspecified)"
test_result = "> 100 µM"

[[record]]
molecule = "Nc1ccc2c(c1)NCCN2"
test_result = "> 100 µM"

[[record]]
molecule = "CCC1C(c2cccc(OC)c2O)c2cc3c(cc2OC1N1CCCC1)OCO3 (stereo unspecified)"
test_result = "43.5 µM"

[[record]]
molecule = "COCC(=O)CP(=O)(OC)OC"
test_result = "> 100 µM"

[[record]]
molecule = "COC(=O)C(C)(N=Cc1ccccc1)c1ccccc1 (stereo unspecified)"
test_result = "> 100 µM"

[[record]]
molecule = "O=C(NCCCCCCNC(=O)n1cc(F)c(=O)[nH]c1=O)NCCCOCCOCCCNC(=O)C(O)C(O)C(O)C(O)CO (stereo unspecified)"
test_result = "> 2.5 µM"

[[record]]
molecule = "CC(C)c1ccc(C(=O)Nc2sc3c(c2C#N)CCC(=O)C3)cc1"
test_result = "5.97 µM"

[[record]]
molecule = "CCOC(=O)c1cc(C(=O)c2ccccc2)n2nc(-c3ccc(Cl)cc3)ccc12"
test_result = "32.6 µM"


* * *

test system: HCT-116 colon; experiment: NCI tumour cell line growth inhibition, 48 h
metric_name: GI50

[[record]]
compound = "Cc1sc(C)c(Cc2c(C)sc(C)c2CCl)c1CCl"
test_result = "> 100000 nM"

[[record]]
compound = "NNc1cccc(/C=C/c2ccccc2)cc1=O"
test_result = "7300 nM"

[[record]]
compound = "O=C(Nc1ccc(F)cc1)c1c(NC(=O)C(F)(F)F)sc2c1CCCCC2"
test_result = "2050 nM"

[[record]]
compound = "O=c1nc(Nc2cccc(Cl)c2)oc2cc(Cl)oc(=O)c12"
test_result = "10700 nM"

[[record]]
compound = "COc1ccc(/C=C/c2nc(NCCCN(C)C)c3ccccc3n2)cc1"
test_result = "2300 nM"

[[record]]
compound = "Nc1nnc2cc(Cl)ccc2n1"
test_result = "> 100000 nM"

[[record]]
compound = "CCN1C(=S)N(CC)C2C1NC(=S)N2/N=C/C=C/c1ccccc1 (stereo not drawn)"
test_result = "1300 nM"

[[record]]
compound = "CCCCCCCCCCN(CCCCCCCCCC)CC(=O)c1ccc2cc(Br)c3ccccc3c2c1"
test_result = "1670 nM"


* * *

test system: HOP-92 NSCLC; test: NCI tumour cell line growth inhibition, 48 h
# reported TGI; entries follow
metric_name: TGI

[[record]]
compound = "Nc1nc2c(c(=O)[nH]1)N(C=O)C(CNc1ccc(C(=O)N[C@@H](CCC(=O)O)C(=O)O)cc1)CN2 (stereo partly drawn)"
metric_name = "TGI"
test_result = "> 125 µM"

[[record]]
compound = "O=C1CSC(/C(=C\\c2ccc(Cl)cc2)c2nc3ccccc3[nH]2)=N1"
metric_name = "TGI"
test_result = "25.1 µM"

[[record]]
compound = "CNc1ccc(-c2nc3cc(C)ccc3o2)cc1"
metric_name = "TGI"
test_result = "> 100 µM"

[[record]]
compound = "Cc1cc(CNC(=O)OCc2ccccc2)c(C)c2c1Oc1ccccc1O2"
metric_name = "TGI"
test_result = "26.1 µM"

[[record]]
compound = "COc1ccc2c(c1OC)C1=C(C2=O)c2cc3c(cc2CCN1)OCO3"
metric_name = "TGI"
test_result = "> 100 µM"

[[record]]
compound = "COC(=O)C(CCc1ccccc1I)C1=CCC2(CC1)OCCO2 (stereo not drawn)"
metric_name = "TGI"
test_result = "> 100 µM"

[[record]]
compound = "O=c1[nH]nc(-c2ccccc2)n1/N=C/c1ccncc1"
metric_name = "TGI"
test_result = "> 100 µM"

[[record]]
compound = "COc1cc(C2SCC(=O)N2c2ccc(-n3c(-c4ccccc4)nc4ccccc4c3=O)cc2)ccc1O (stereo not drawn)"
metric_name = "TGI"
test_result = "68.9 µM"

[[record]]
compound = "C=C1C(=O)OC2(C)C3CCC(C3)C12 (stereo not drawn)"
metric_name = "TGI"
test_result = "87.4 µM"

[[record]]
compound = "CCOC(=O)c1[nH]c(-c2ccc(Cl)cc2)cc1-c1cccnc1"
metric_name = "TGI"
test_result = "84.7 µM"

[[record]]
compound = "C=CCOc1ccccc1N=N/C(C#N)=N\\Nc1ccccc1OCC=C"
metric_name = "TGI"
test_result = "> 100 µM"

[[record]]
compound = "CC(=O)O[C@H]1CC[C@@]2(C)C(=CC[C@H]3C4=CC=C(C(C)=O)[C@@]4(C)CCC32)C1 (stereo partly drawn)"
metric_name = "TGI"
test_result = "> 100 µM"

[[record]]
compound = "C(CCC[Te][Te]CCCCCCOC1CCCCO1)CCOC1CCCCO1 (stereo not drawn)"
metric_name = "TGI"
test_result = "30.5 µM"

[[record]]
compound = "NC(=Nc1ccc(O)cc1)S(=O)(=O)O"
metric_name = "TGI"
test_result = "> 100 µM"

[[record]]
compound = "Cn1c(=O)c2c(nc3n(Cc4ccccc4)c(=O)c(NCCBr)cn23)n(C)c1=O"
metric_name = "TGI"
test_result = "36.2 µM"

[[record]]
compound = "COc1ccc2c(Nc3ccc(NS(C)(=O)=O)cc3)c3ccccc3nc2c1"
metric_name = "TGI"
test_result = "2.66 µM"

[[record]]
compound = "CC(=O)NCCC1CN(C(=O)/C=C\\C#C[Si](C)(C)C)c2ccccc21 (stereo not drawn)"
metric_name = "TGI"
test_result = "> 100 µM"

[[record]]
compound = "CCOC(=O)c1cc(C(=O)c2ccccc2)n2nc(-c3ccc(Cl)cc3)ccc12"
metric_name = "TGI"
test_result = "60.5 µM"

[[record]]
compound = "O=C(NCCCCCCNC(=O)n1cc(F)c(=O)[nH]c1=O)NCCCOCCOCCCNC(=O)C(O)C(O)C(O)C(O)CO (stereo not drawn)"
metric_name = "TGI"
test_result = "> 2.5 µM"

[[record]]
compound = "COc1cc(/C=C2\\CC3C4CC=C5C[C@@H](OC(C)=O)CC[C@]5(C)C4CC[C@]3(C)C2=O)ccc1OCCCn1ccnc1 (stereo partly drawn)"
metric_name = "TGI"
test_result = "> 50 µM"

[[record]]
compound = "CC[C@@]1(O)C(=O)NCc2c1cc1n(c2=O)Cc2cc3c(N)cccc3nc2-1"
metric_name = "TGI"
test_result = "> 84.1 µM"

[[record]]
compound = "CC(C)=CC(=O)O[C@H]1C(=O)O[C@@H]2C[C@H]3[C@H](C)C(=O)C(O[C@@H]4O[C@H](CO)[C@@H](O)[C@H](O)[C@H]4O)=C[C@]3(C)[C@H]3[C@@H](O)[C@H](O)[C@]4(C(=O)O)OC[C@]32[C@@H]14"
metric_name = "TGI"
test_result = "> 100 µM"

[[record]]
compound = "C/C(=N/NC(=S)Nc1ccccc1Cl)c1cccc(/C(C)=N\\NC(=S)Nc2ccccc2Cl)n1"
metric_name = "TGI"
test_result = "> 100 µM"


Values were extracted from PubChem BioAssay (NCI).
